Overview of reported fractional inhibitory concentration index (FICI) across a group of compounds:
# Test system: Staphylococcus aureus
# measurement_protocol: Ratio of MIC for community acquired methicillin-resistant Staphylococcus aureus USA300 in presence of targocil to MIC for community acquired methicillin-resistant Staphylococcus aureus USA300 by checkerboard broth microdilution assay
# Assay type: functional
Answer with a number only.

In the examples that follow, each entry is paired with its recorded fractional inhibitory concentration index (FICI).
- compound: "COC(=O)C(c1ccccc1Cl)N1CCc2ccccc2C1 (racemic)"
  observed_value: 8.2
- compound: "Clc1ccccc1CC1CCc2ccccc2N1 (centres undefined)"
  observed_value: 8.3
- compound: "Clc1ccc2c(c1)CCN(Cc1ccccc1Cl)C2"
  observed_value: 4.5
- compound: "NC(=O)C(c1ccccc1C(F)(F)F)N1CCc2ccccc2C1 (racemic)"
  observed_value: 2

get_value(item= O=C(O)C(c1ccccc1Cl)N1CCc2sccc2C1 (racemic) , readout=fractional inhibitory concentration index (FICI)) returns 2

get_value(item= `Clc1ccccc1C[n+]1ccc2ccccc2c1` , readout=fractional inhibitory concentration index (FICI)) returns 2

get_value(item= `c1ccc(CN2CCc3ccccc3C2)cc1` , readout=fractional inhibitory concentration index (FICI)) returns 1.3

get_value(item= O=C(O)C(c1ccccc1C(F)(F)F)N1CCc2ccccc2C1 (racemic) , readout=fractional inhibitory concentration index (FICI)) returns 2

get_value(item= `Fc1ccccc1CN1CCc2ccccc2C1` , readout=fractional inhibitory concentration index (FICI)) returns 8

###

Overview of reported fractional inhibitory concentration index (FICI) across a group of compounds:
# System: Staphylococcus aureus
# measurement_protocol: Ratio of MIC for community acquired methicillin-resistant Staphylococcus aureus USA300 in presence of targocil to MIC for community acquired methicillin-resistant Staphylococcus aureus USA300 by checkerboard broth microdilution assay
# Type: functional

In the examples that follow, each entry is paired with its recorded fractional inhibitory concentration index (FICI).
- compound: "COC(=O)C(c1ccccc1C(F)(F)F)N1CCc2ccccc2C1 (racemic)"
  observed_value: 8.3
- compound: "Clc1ccccc1CN1CCC2CCCCC2C1 (stereo not given)"
  observed_value: 2
- compound: "Clc1ccc(CN2CCc3ccccc3C2)cc1"
  observed_value: 8.1
- compound: "Cc1ccccc1CN1CCc2ccccc2C1"
  observed_value: 8.1
- compound: "Clc1ccccc1CN1CCc2sccc2C1"
  observed_value: 8.3

get_value(item= O=C(O)C(c1ccccc1Cl)N1CCc2ccccc2C1 (racemic) , readout=fractional inhibitory concentration index (FICI)) returns 2

get_value(item= `O=[N+]([O-])c1ccccc1CN1CCc2ccccc2C1` , readout=fractional inhibitory concentration index (FICI)) returns 8.3

get_value(item= `c1ccc2c(c1)CCN(Cc1ccncc1)C2` , readout=fractional inhibitory concentration index (FICI)) returns 2

get_value(item= `Oc1ccc2c(c1)CN(Cc1ccccc1Cl)CC2` , readout=fractional inhibitory concentration index (FICI)) returns 4.5

get_value(item= `Clc1ccccc1CN1CCc2ccccc2C1` , readout=fractional inhibitory concentration index (FICI)) returns 8.1
